TARGET: T1, human CCR4 (human, UniProt P51679 1-360)
T1 construct: also called hCCR4
T1 sequence: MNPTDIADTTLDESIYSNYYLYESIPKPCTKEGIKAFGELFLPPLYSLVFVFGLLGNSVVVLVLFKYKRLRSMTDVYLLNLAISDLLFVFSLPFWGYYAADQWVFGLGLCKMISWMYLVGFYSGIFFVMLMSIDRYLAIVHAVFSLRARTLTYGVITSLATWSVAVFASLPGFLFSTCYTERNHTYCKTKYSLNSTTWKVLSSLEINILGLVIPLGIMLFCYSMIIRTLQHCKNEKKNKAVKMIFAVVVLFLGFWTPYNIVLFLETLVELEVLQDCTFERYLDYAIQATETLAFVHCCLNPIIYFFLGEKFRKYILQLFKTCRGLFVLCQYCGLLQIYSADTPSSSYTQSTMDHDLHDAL
EXPERIMENT_DESCRIPTION: flow cytometry, transfected Expi293 cells

BINDER: 27G1 (antibody, V domains shown, mouse hybridoma antibody) VH: EVQLVESGGRLVQPKGSLKLSCAASGFAFNTYAMYWIRQAPGKGLEWVARIRSKSNNYATYYADSVKDRFTISRDDSQSMLYLQMNNLKTEDTAMYYCVRARFYYSDYGYAMDYWGQGTSVTVSS VL: DIVMTQAAPSVPVTPGESVSISCRSSKSLLHSNGNTYLYWFLQRPGQSPQLLIYRMSNLASGVPDRFSGSGSGTAFTLRISRVEAEDVGVYYCMQHLEYPLTFGAGTKLELKR
binding result: no binding
--
BINDER: 10A11 (antibody, V domains shown, mouse hybridoma antibody; also called m10A11; clone No. 10A11) VH: EVQLVESGGRLVQPKGSLKLSCAASGFAFNTYALYWIRQAPGKGLEWVARIRSKSNNYATYYADSVKDRFTISRDDSQSMLYLQMNNLKTEDTAMYYCVRARFYYSDYGYAMDYWGQGTSVTVSS VL: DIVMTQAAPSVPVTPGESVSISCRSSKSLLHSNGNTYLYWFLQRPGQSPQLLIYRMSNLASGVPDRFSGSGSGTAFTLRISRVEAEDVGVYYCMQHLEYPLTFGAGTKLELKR
binding result: no binding
--
BINDER: 1H4 (antibody, V domains shown, mouse hybridoma antibody) VH: EVQLVESGGRLVQPKGSLKLSCAASGFTFNTYAMYWIRQAPGKGLEWVARIRSKSNNYATYYADSVKDRFTISRDDSQSMLYLQMNNLKTEDTAMYYCVRARFYYSDYGYAMDYWGQGTSVTVSS VL: DIVMTQAAPSVPVTPGESVSISCRSSKSLLHSNGNTYLYWFLQRPGQSPQLLIYRMSNLASGVPDRFSASGSGTAFTLRISRVEAEDVGVYYCMQHLEYPLTFGAGTKLELKR
binding result: no binding
--
BINDER: 8F7 (antibody, V domains shown, mouse hybridoma antibody) VH: EVQLVESGGRLVQPKRSLKLSCAASGFTFNPYAMYWIRQAPGQGLEWVARIRSKSNNYATYYADSVKDRFTISRDDSQSMLYLQMNNLKTEDTAMYYCVRGHQGTMDYWGQGTSVTVSS VL: DIVMTQAAPSVPVTPGESVSISCRSSKSLLHSNGNTYLYWFLQRPGQSPQLLTYRMSNLASGVPDRFSGSGSGTAFTLRISRVEAEDVGVYYCMQHLEYPFTFGGGTKLEIKR
binding result: no binding

Data origin: patent US20220064312A1
